Numbers sourced from patent US7396812B2.

- target-system: Nod1 (Homo sapiens, UniProt Q9Y239)
- Sequence (Q9Y239 whole entry): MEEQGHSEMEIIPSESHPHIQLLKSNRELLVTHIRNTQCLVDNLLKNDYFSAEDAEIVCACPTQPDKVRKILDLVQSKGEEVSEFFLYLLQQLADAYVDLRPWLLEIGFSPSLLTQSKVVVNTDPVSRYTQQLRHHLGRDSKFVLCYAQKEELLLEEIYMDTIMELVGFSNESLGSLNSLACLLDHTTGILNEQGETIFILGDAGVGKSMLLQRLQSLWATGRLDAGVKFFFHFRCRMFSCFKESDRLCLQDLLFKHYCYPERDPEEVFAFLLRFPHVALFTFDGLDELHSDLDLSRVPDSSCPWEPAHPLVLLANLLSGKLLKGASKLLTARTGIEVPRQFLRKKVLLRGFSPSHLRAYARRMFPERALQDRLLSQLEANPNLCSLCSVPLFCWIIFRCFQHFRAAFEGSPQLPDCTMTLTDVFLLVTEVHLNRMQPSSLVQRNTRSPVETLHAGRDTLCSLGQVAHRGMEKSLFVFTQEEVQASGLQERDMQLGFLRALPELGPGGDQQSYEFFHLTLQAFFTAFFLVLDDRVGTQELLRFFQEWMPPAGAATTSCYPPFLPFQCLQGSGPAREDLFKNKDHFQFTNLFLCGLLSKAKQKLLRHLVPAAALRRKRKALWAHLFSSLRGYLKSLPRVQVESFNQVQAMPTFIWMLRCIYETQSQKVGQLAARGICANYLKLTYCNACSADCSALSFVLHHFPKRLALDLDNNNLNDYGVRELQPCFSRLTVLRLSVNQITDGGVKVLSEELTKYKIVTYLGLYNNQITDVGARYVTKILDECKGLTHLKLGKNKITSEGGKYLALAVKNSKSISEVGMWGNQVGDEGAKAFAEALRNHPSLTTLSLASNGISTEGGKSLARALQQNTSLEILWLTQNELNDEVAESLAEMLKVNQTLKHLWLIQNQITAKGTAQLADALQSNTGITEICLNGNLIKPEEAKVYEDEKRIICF
- protocol-text: Nod1-dependent NF-κB-luciferase activation in Nod1-overexpressing HEK293 cells
- Assay type: cell-based
- Design: expressed in transfected cells; host or cells: HEK293
readout-kind: detection by Nod1 of peptidoglycan structures (FIG. 8)

| compound | result |
| --- | --- |
| CC(=O)NC1C(O)OC(CO)C(O)C1OC(C)C(=O)NC(C)C(=O)NC(CCC(=O)NC(CCCC(N)C(=O)O)C(=O)O)C(=O)O (stereo not shown) | detects |
| C[C@H](N)C(=O)N[C@H](CCC(=O)NC(CCCC(N)C(=O)O)C(=O)O)C(=O)O (stereo partly shown) [TriDAP] | detects |
| CC(=O)N[C@H]1[C@@H](OP(=O)(O)OP(=O)(O)OC[C@H]2O[C@@H](n3ccc(=O)[nH]c3=O)[C@H](O)[C@@H]2O)O[C@H](CO)[C@@H](O)[C@@H]1O[C@H](C)C(=O)N[C@@H](C)C(=O)N[C@H](CCC(=O)N[C@@H](CCC[C@@H](N)C(=O)O)C(=O)O)C(=O)O | detects |
